Assign inhibition at 10 µM to each entry below.
molecular target: JAK3 (Homo sapiens, UniProt P52333); test: FRET-based coupled-enzyme protein kinase inhibition assay; assay type: biochemical; conditions: compound at 10 µM, 1% DMSO
Sequence (P52333 whole entry, species assumed): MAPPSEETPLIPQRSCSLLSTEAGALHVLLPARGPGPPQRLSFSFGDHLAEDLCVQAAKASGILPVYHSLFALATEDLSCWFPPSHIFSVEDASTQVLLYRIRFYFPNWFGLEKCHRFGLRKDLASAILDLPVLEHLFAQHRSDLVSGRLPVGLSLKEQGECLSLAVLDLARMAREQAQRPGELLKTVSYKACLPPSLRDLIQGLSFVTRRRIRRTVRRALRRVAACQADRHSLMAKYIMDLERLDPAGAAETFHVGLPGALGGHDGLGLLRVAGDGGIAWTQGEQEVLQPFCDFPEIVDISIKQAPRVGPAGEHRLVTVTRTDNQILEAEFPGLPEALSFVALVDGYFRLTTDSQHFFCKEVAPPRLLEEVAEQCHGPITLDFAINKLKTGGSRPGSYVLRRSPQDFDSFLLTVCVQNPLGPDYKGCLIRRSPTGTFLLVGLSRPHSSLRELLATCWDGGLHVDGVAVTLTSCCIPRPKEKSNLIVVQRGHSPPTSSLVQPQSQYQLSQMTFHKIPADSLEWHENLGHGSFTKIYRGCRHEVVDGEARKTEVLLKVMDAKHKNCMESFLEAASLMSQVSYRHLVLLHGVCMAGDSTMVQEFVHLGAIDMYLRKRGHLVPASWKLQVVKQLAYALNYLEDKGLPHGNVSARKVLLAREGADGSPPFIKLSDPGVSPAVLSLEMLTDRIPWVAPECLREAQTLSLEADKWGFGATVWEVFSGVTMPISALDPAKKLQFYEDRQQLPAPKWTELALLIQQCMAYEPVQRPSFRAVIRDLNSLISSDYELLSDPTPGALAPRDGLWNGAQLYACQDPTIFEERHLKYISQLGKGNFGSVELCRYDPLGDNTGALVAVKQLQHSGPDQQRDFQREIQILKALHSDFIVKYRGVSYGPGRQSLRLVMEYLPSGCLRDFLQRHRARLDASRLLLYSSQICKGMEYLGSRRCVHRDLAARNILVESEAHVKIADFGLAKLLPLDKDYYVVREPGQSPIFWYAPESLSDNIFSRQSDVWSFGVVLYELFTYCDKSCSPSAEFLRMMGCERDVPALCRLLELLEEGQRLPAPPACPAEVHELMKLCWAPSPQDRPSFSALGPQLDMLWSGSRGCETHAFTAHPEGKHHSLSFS

Lab note: compound CN(C)CCNC(=O)OC[C@H]1O[C@@H](n2cnc3c(N)ncnc32)[C@H](O)[C@@H]1O tested on JAK3 (Homo sapiens, UniProt P52333); recorded inhibition at 10 µM was -12%

Lab note: compound Nc1ncnc2c1ncn2[C@@H]1O[C@H](COC(=O)NC[C@H](O)CO)[C@@H](O)[C@H]1O tested on JAK3 (Homo sapiens, UniProt P52333); recorded inhibition at 10 µM was -2%

Lab note: compound N#CCCN1CCN(C(=O)OC[C@H]2O[C@@H](n3cnc4c(N)ncnc43)[C@H](O)[C@@H]2O)CC1 tested on JAK3 (Homo sapiens, UniProt P52333); recorded inhibition at 10 µM was -8%

Lab note: compound CS(=O)(=O)N1CC2(CCN(C(=O)OC[C@H]3O[C@@H](n4cnc5c(N)ncnc54)[C@H](O)[C@@H]3O)CC2)c2ccccc21 tested on JAK3 (Homo sapiens, UniProt P52333); recorded inhibition at 10 µM was -1%

Lab note: compound Nc1ncnc2c1ncn2[C@@H]1O[C@H](COC(=O)N2CCN(Cc3ccccc3)CC2CO)[C@@H](O)[C@H]1O (stereo partly shown) tested on JAK3 (Homo sapiens, UniProt P52333); recorded inhibition at 10 µM was 1%

Lab note: compound Nc1ncnc2c1ncn2[C@@H]1O[C@H](COC(=O)N2CCN(C(=O)N3CCOCC3)CC2)[C@@H](O)[C@H]1O tested on JAK3 (Homo sapiens, UniProt P52333); recorded inhibition at 10 µM was 2%

Lab note: compound CC(C)N1CCC(NC(=O)OC[C@H]2O[C@@H](n3cnc4c(N)ncnc43)[C@H](O)[C@@H]2O)CC1 tested on JAK3 (Homo sapiens, UniProt P52333); recorded inhibition at 10 µM was -2%

Lab note: compound Nc1ncnc2c1ncn2[C@@H]1O[C@H](COC(=O)N2CCN(CCc3ccccc3)CC2)[C@@H](O)[C@H]1O tested on JAK3 (Homo sapiens, UniProt P52333); recorded inhibition at 10 µM was -7%

Lab note: compound Nc1ncnc2c1ncn2[C@@H]1O[C@H](COC(=O)NCCCc2nc3ccccc3[nH]2)[C@@H](O)[C@H]1O tested on JAK3 (Homo sapiens, UniProt P52333); recorded inhibition at 10 µM was -2%

Lab note: compound Nc1ncnc2c1ncn2[C@@H]1O[C@H](COC(=O)NCCN2CCCC2=O)[C@@H](O)[C@H]1O tested on JAK3 (Homo sapiens, UniProt P52333); recorded inhibition at 10 µM was -8%

Lab note: compound C[C@@H](NC(=O)OC[C@H]1O[C@@H](n2cnc3c(N)ncnc32)[C@H](O)[C@@H]1O)c1ccc(Cl)cc1 tested on JAK3 (Homo sapiens, UniProt P52333); recorded inhibition at 10 µM was 6%

Lab note: compound Nc1ncnc2c1ncn2[C@@H]1O[C@H](COC(=O)N[C@@H]2CCN(Cc3ccccc3)C2)[C@@H](O)[C@H]1O tested on JAK3 (Homo sapiens, UniProt P52333); recorded inhibition at 10 µM was -2%

Lab note: compound Nc1ncnc2c1ncn2[C@@H]1O[C@H](COC(=O)N2CCC[C@H]2CO)[C@@H](O)[C@H]1O tested on JAK3 (Homo sapiens, UniProt P52333); recorded inhibition at 10 µM was -8%

Lab note: compound CN1CCN(CCNC(=O)OC[C@H]2O[C@@H](n3cnc4c(N)ncnc43)[C@H](O)[C@@H]2O)CC1 tested on JAK3 (Homo sapiens, UniProt P52333); recorded inhibition at 10 µM was 2%

Lab note: compound Nc1ncnc2c1ncn2[C@@H]1O[C@H](COC(=O)N2CCC(Cc3ccc(F)cc3)C2)[C@@H](O)[C@H]1O (stereo partly shown) tested on JAK3 (Homo sapiens, UniProt P52333); recorded inhibition at 10 µM was 0%

Lab note: compound Nc1ncnc2c1ncn2[C@@H]1O[C@H](COC(=O)N2CCS(=O)(=O)CC2)[C@@H](O)[C@H]1O tested on JAK3 (Homo sapiens, UniProt P52333); recorded inhibition at 10 µM was -2%

---

Molecular target: UniProt P43405
Assay: FRET-based coupled-enzyme protein kinase inhibition assay
Assay type: biochemical
Conditions: compound at 10 µM, 1% DMSO
Description: A biochemical assay was then performed in order to measure the protein kinase inhibition. It employed a fluorescence-based coupled-enzyme format and was based on the differential sensitivity of phosphorylated and non-phosphorylated peptides to proteolytic cleavage. […] A significant benefit of this ratiometric method for quantitating reaction progress is the elimination of well-to-well variations in FRET-peptide concentration and signal intensities. […]
Observed Property: inhibition at 10 µM (%)
Numeric answer only, unit % assumed.

Consider Nc1ncnc2c1ncn2[C@@H]1O[C@H](COC(=O)NC[C@H](O)CO)[C@@H](O)[C@H]1O [Compound C8] . Its measured inhibition at 10 µM is 7

Consider Nc1ncnc2c1ncn2[C@@H]1O[C@H](COC(=O)N2CCN(CCc3ccccc3)CC2)[C@@H](O)[C@H]1O [Compound C26] . Its measured inhibition at 10 µM is -4

Consider Nc1ncnc2c1ncn2[C@@H]1O[C@H](COC(=O)N2CCC(Cc3ccc(F)cc3)C2)[C@@H](O)[C@H]1O (stereo partly shown) [Compound C66] . Its measured inhibition at 10 µM is 1

Consider CN1CCN(CCNC(=O)OC[C@H]2O[C@@H](n3cnc4c(N)ncnc43)[C@H](O)[C@@H]2O)CC1 [Compound C46] . Its measured inhibition at 10 µM is 0

Consider Nc1ncnc2c1ncn2[C@@H]1O[C@H](COC(=O)N2CCN(Cc3ccccc3)CC2CO)[C@@H](O)[C@H]1O (stereo partly shown) [Compound C13] . Its measured inhibition at 10 µM is 0

Consider Nc1ncnc2c1ncn2[C@@H]1O[C@H](COC(=O)NCCN2CCCC2=O)[C@@H](O)[C@H]1O [Compound C22] . Its measured inhibition at 10 µM is -8

Consider Nc1ncnc2c1ncn2[C@@H]1O[C@H](COC(=O)N[C@@H]2CCN(Cc3ccccc3)C2)[C@@H](O)[C@H]1O [Compound C10] . Its measured inhibition at 10 µM is 1

Consider CC(C)N1CCC(NC(=O)OC[C@H]2O[C@@H](n3cnc4c(N)ncnc43)[C@H](O)[C@@H]2O)CC1 [Compound C19] . Its measured inhibition at 10 µM is -1

Consider C[C@@H](NC(=O)OC[C@H]1O[C@@H](n2cnc3c(N)ncnc32)[C@H](O)[C@@H]1O)c1ccc(Cl)cc1 [Compound C4] . Its measured inhibition at 10 µM is 4

Consider N#CCCN1CCN(C(=O)OC[C@H]2O[C@@H](n3cnc4c(N)ncnc43)[C@H](O)[C@@H]2O)CC1 [Compound C70] . Its measured inhibition at 10 µM is -1

Consider Nc1ncnc2c1ncn2[C@@H]1O[C@H](COC(=O)N2CCC[C@H]2CO)[C@@H](O)[C@H]1O [Compound C9] . Its measured inhibition at 10 µM is -4

Consider Nc1ncnc2c1ncn2[C@@H]1O[C@H](COC(=O)NCCCc2nc3ccccc3[nH]2)[C@@H](O)[C@H]1O [Compound C1] . Its measured inhibition at 10 µM is 3

Consider Nc1ncnc2c1ncn2[C@@H]1O[C@H](COC(=O)N2CCS(=O)(=O)CC2)[C@@H](O)[C@H]1O [Compound C100] . Its measured inhibition at 10 µM is -3

Consider Nc1ncnc2c1ncn2[C@@H]1O[C@H](COC(=O)N2CCN(C(=O)N3CCOCC3)CC2)[C@@H](O)[C@H]1O [Compound C89] . Its measured inhibition at 10 µM is -5

Consider CN(C)CCNC(=O)OC[C@H]1O[C@@H](n2cnc3c(N)ncnc32)[C@H](O)[C@@H]1O [Compound C85] . Its measured inhibition at 10 µM is -1

Consider CS(=O)(=O)N1CC2(CCN(C(=O)OC[C@H]3O[C@@H](n4cnc5c(N)ncnc54)[C@H](O)[C@@H]3O)CC2)c2ccccc21 [Compound C98] . Its measured inhibition at 10 µM is 2

---

biological target: IKBKB (IKK beta) (Homo sapiens, UniProt O14920); experiment: FRET-based coupled-enzyme protein kinase inhibition assay; type: biochemical; conditions: compound at 10 µM, 1% DMSO
Sequence (O14920 whole entry, species assumed): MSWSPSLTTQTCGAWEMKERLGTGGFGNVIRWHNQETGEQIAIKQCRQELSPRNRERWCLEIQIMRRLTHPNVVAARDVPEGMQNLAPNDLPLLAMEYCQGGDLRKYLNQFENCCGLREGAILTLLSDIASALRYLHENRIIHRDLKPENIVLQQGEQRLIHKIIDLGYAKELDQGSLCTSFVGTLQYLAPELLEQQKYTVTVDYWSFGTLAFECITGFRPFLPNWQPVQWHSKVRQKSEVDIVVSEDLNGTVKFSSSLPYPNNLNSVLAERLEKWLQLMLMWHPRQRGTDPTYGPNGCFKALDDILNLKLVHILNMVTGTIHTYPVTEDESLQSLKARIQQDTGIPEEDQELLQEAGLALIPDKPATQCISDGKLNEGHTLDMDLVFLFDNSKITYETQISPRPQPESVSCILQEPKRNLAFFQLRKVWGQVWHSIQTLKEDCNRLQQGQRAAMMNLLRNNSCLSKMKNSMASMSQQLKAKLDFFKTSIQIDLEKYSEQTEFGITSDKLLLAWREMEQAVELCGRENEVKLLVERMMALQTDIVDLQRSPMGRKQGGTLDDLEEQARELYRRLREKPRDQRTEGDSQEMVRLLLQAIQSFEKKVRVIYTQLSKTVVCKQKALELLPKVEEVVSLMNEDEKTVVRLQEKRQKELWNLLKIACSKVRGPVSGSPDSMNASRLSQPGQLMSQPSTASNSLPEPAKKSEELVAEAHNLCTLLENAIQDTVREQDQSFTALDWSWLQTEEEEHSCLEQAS
Observed Property: inhibition at 10 µM (%)
Numeric answer only, unit % assumed.

Consider Nc1ncnc2c1ncn2[C@@H]1O[C@H](COC(=O)N2CCN(CCc3ccccc3)CC2)[C@@H](O)[C@H]1O . Its measured inhibition at 10 µM is -8

Consider CN(C)CCNC(=O)OC[C@H]1O[C@@H](n2cnc3c(N)ncnc32)[C@H](O)[C@@H]1O . Its measured inhibition at 10 µM is -10

Consider Nc1ncnc2c1ncn2[C@@H]1O[C@H](COC(=O)N2CCC(Cc3ccc(F)cc3)C2)[C@@H](O)[C@H]1O (stereo partly drawn) . Its measured inhibition at 10 µM is -11

Consider Nc1ncnc2c1ncn2[C@@H]1O[C@H](COC(=O)N2CCN(C(=O)N3CCOCC3)CC2)[C@@H](O)[C@H]1O . Its measured inhibition at 10 µM is -10

Consider Nc1ncnc2c1ncn2[C@@H]1O[C@H](COC(=O)N2CCS(=O)(=O)CC2)[C@@H](O)[C@H]1O . Its measured inhibition at 10 µM is -9

Consider CC(C)N1CCC(NC(=O)OC[C@H]2O[C@@H](n3cnc4c(N)ncnc43)[C@H](O)[C@@H]2O)CC1 . Its measured inhibition at 10 µM is -6

Consider Nc1ncnc2c1ncn2[C@@H]1O[C@H](COC(=O)N[C@@H]2CCN(Cc3ccccc3)C2)[C@@H](O)[C@H]1O . Its measured inhibition at 10 µM is -11

Consider Nc1ncnc2c1ncn2[C@@H]1O[C@H](COC(=O)N2CCC[C@H]2CO)[C@@H](O)[C@H]1O . Its measured inhibition at 10 µM is -8

Consider Nc1ncnc2c1ncn2[C@@H]1O[C@H](COC(=O)N2CCN(Cc3ccccc3)CC2CO)[C@@H](O)[C@H]1O (stereo partly drawn) . Its measured inhibition at 10 µM is -7
